B1: ANKRD9 (parent)
chain: LLEDMRASEAFHWDERGRAAAYSP

Variants of: B1
Experiment: protein stability index of a GFP-peptide fusion (GPS, HEK-293T) (PSI 1-6); higher = more stable;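 further: lentivirally expressed fusions sorted by FACS into six bins by GFP to DsRed ratio, PSI derived from sequencing read proportions per bin multiplied by bin number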
Details: c terminus: a fixed tail appended
Overview of recorded protein stability index for various variants
Reply with the value as a number alone.

INSERT INTO assay_data (variant_string, measured_value) VALUES
  ('D14F', 1.36),
  ('A19V', 1.99),
  ('E3M', 1.15);

Per the records, this variant ( "G17F" ) has protein stability index equal to 2.59

Per the records, this variant ( "A19W" ) has protein stability index equal to 1.53

Per the records, this variant ( "R6K" ) has protein stability index equal to 2.85
